# assayed_system: T1, human TfR1 on the cell surface (KMS-11 or MM.1S human MM cells) (human, UniProt P02786 1-760)
# T1 construct: whole, on cells; also called human cells expressing the TfR1; CD71
# T1 sequence (P02786 whole entry): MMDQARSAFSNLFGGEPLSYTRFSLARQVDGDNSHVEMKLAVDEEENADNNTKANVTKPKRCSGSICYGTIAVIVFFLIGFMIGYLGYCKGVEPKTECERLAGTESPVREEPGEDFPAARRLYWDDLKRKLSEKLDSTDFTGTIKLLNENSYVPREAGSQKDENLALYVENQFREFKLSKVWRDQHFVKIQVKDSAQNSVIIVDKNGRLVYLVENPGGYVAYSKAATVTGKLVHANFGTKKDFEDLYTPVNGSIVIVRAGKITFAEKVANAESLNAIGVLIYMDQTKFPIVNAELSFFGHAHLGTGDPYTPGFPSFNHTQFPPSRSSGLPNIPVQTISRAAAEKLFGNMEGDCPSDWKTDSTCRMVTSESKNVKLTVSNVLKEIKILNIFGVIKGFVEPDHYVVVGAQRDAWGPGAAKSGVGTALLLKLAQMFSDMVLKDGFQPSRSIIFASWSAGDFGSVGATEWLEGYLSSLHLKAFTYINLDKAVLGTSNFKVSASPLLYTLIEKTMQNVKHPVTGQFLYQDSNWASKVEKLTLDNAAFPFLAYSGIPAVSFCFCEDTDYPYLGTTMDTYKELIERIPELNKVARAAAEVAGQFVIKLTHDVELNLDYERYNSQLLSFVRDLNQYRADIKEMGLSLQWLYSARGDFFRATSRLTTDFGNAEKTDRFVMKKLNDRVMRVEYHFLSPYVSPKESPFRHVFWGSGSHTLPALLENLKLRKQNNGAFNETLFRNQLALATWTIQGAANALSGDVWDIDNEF
# experimental_protocol: flow cytometry on KMS-11 cells; semi-quantitative grade
result_type: binding result

H8L7 (antibody, human IgG1, V domains shown, humanized; also called hu128.1) VH: QVQLVESGGGVVQPGRSLRLSCAASGYSFTGYTMNWVRQAPGNGLEWVARINPHNGGTDYNQKFKDRFTISRDNSKNTLYLQMNSLRAEDTAVYYCARGYYYYSLDYWGQGTTVTVSS VL: EIVLTQSPATLSLSPGERATLSCSASSSIRYIHWYQQKPGQAPRRWIYDTSNLASGTPARFSGSGSGTSYSLTISSLEPEDFAVYYCHQRNSYPWTFGQGTKVEIK	binds
